Some compounds, each annotated with its measured Semi-synthetic BFP (Buffer containing CaCl2) Maximum fluorescence wavelength λmax (nm).
- TARGET_OR_SYSTEM: apoaequorin (Aequorea victoria)
- Construct: purchased Chisso Corporation
- Sequence (P07164 other isoform, or with tags, fused parts or gaps with the stated changes): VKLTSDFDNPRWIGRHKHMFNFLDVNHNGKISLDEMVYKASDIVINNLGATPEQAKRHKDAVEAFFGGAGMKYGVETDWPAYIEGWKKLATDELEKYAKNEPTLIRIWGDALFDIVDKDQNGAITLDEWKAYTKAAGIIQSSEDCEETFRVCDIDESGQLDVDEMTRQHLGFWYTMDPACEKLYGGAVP
- ASSAY_METHOD_TEXT: Fluorescence spectra of semi-synthetic BFP (coelenteramide analogue + apoaequorin, CaCl2)
- Type: physicochemical
- EXPERIMENTAL_PARAMETERS: 10 mM CaCl2 buffer, excitation 337 nm
PROPERTY_NAME: Semi-synthetic BFP (Buffer containing CaCl2) Maximum fluorescence wavelength λmax (nm)

| ITEM_SMILES | TARGET_OR_SYSTEM | OBSERVED_VALUE |
| --- | --- | --- |
| O=C(Cc1ccc(O)cc1)Nc1ncc(-c2ccc(O)cc2)nc1-c1cc2sc3ccsc3c2s1 | apoaequorin (Aequorea victoria) | 468.0 nm |
| Oc1ccc(NC(=S)Nc2ncc(-c3ccc(O)cc3)nc2Cc2ccccc2)cc1 | apoaequorin (Aequorea victoria) | 430.5 nm |
| O=C(Cc1ccc(O)cc1)Nc1ncc(-c2ccc(O)cc2)nc1-c1ccsc1 | apoaequorin (Aequorea victoria) | 501.5 nm |
| O=C(Cc1ccc(O)cc1)Nc1ncc(-c2ccc(O)cc2)nc1C#Cc1ccccc1 | apoaequorin (Aequorea victoria) | 548.5 nm |
| O=C(Cc1ccc(O)cc1)Nc1ncc(-c2ccc(O)cc2)nc1-c1csc2ccccc12 | apoaequorin (Aequorea victoria) | 494.0 nm |
| O=C(Cc1ccc(O)cc1)Nc1ncc(-c2ccc(O)cc2)nc1-c1ccc([N+](=O)[O-])cc1 | apoaequorin (Aequorea victoria) | 477.5 nm |
| O=C(Cc1ccc(O)cc1)Nc1ncc(-c2ccc(O)cc2)nc1-c1ccc(-c2cccs2)s1 | apoaequorin (Aequorea victoria) | 457.5 nm |
| O=C(Nc1ncc(-c2ccc(O)cc2)nc1Cc1ccccc1)c1cccc2cc(O)ccc12 | apoaequorin (Aequorea victoria) | 487.0 nm |
